Reference for the values: patent US20230233541A1

The following compounds are listed with their measured pEC50 values.
- system_under_test: full length human TREX1 (Homo sapiens)
- Construct: N-terminally His-Tev tagged full length human TREX1; His-Tev (His tag with TEV protease site) (N)
- Sequence (Q9NSU2 whole entry): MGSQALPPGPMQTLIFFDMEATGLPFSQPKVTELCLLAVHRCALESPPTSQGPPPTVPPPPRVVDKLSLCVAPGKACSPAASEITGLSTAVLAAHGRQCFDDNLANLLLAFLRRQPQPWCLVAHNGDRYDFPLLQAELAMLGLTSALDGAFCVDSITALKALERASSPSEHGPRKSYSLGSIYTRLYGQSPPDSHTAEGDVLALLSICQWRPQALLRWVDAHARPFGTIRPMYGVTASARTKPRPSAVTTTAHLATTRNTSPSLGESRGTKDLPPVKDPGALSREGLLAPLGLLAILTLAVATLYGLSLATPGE
- procedure_details: TREX1 Biochemical Assay (fluorescence assay, degradation of dsDNA substrate)
- test_context: 150 pM TREX1, 60 nM dsDNA substrate, 25 minutes at room temperature; read-out: hTREX1 EC50
pEC50: −log10 of the molar value.

>  <compound>
CC[C@@H](c1cccc(Cl)c1OC)N(Cc1cnc(C(=O)O)c(N)c1)C(=O)c1cc(F)cc(F)c1 [Compound 250]

>  <pEC50>
> 7.00

$$$$

Entry O=C(c1cc(F)cc(F)c1)N(Cc1cnc2c(=O)[nH]c(=O)[nH]c2c1)Cc1cccc(Cl)c1Cl [Compound 181] — recorded pEC50 = 6.00 to 7.00

GET /value?item= O=C(O)c1ccc(CN(Cc2nccc(Cl)c2Cl)C(=O)c2cc(F)cc(F)c2)cn1 [Compound 203] &field=pEC50 returns > 7.00

Note to self: pEC50 recorded for O=C(c1cccc(F)c1)N(Cc1ccccc1)Cc1ccc(Cl)cc1Cl [Compound 96] was < 5.00

Record Cc1ccc(C(=O)N(Cc2cccnc2)Cc2cc(Cl)cc(Cl)c2)c(Br)c1 [Compound 76] , field pEC50: < 5.00

According to the records, this compound C[C@H](c1ccc(Cl)cc1Cl)N(Cc1cccnc1)C(=O)c1cccc(F)c1 [Compound 155] displays pEC50 of 6.00 to 7.00

Value of measured pEC50 for the entry O=C(c1cc(F)cc(F)c1)N(Cc1cnc2c(=O)[nH]cnc2c1)Cc1ccccc1Cl [Compound 183] : 6.00 to 7.00

The recorded pEC50 for O=C(O)Cn1cc(CN(Cc2ccc(Cl)cc2Cl)C(=O)c2cc(F)cc(F)c2)cn1 [Compound 165] is 5.00 to 6.00

Short answer for N#Cc1ccc(C(=O)N(Cc2cccnc2)Cc2ccc(Cl)cc2Cl)cc1 [Compound 103] : pEC50 was < 5.00

// field: pEC50; key: CC(C)c1ccc(C(=O)N(Cc2cccnc2)Cc2cc(Cl)cc(Cl)c2)cc1 [Compound 51] ; value = < 5.00

So for O=C(O)c1ccc(CN(Cc2ccccc2C(F)(F)F)C(=O)c2cc(F)cc(F)c2)cn1 [Compound 172] , the logged pEC50 turned out to be > 7.00

Value of pEC50 reported for the compound CC[C@H](c1ccc(OC)c(OC)c1Cl)N(Cc1ccc(C(=O)O)nc1)C(=O)c1cc(F)cc(F)c1 [Compound 226] is > 7.00

Looking up O=C(c1ccc(O)cc1)N(Cc1cccnc1)Cc1cc(Cl)cc(Cl)c1 [Compound 48] , I see its pEC50 listed as < 5.00

Noted for COc1cc(C(=O)N(Cc2cccnc2)Cc2ccc(Cl)cc2Cl)cc(Cl)c1O [Compound 22] : its pEC50 reads < 5.00

Reported pEC50 for CC(C)Oc1ccc(C(=O)N(Cc2cccnc2)Cc2ccc(Cl)cc2Cl)cc1 [Compound 90] was < 5.00

Lab book: pEC50 of O=C(c1cc(F)cc(F)c1)N(Cc1cccnc1)[C@@H](CCO)c1ccc(Cl)cc1Cl [Compound 261] noted as 6.00 to 7.00

The measured pEC50 associated with O=C(c1ccc(Cl)cc1O)N(Cc1cccnc1)Cc1ccc(Cl)cc1Cl [Compound 17] reads < 5.00

Kindly note the recorded pEC50 for O=C(O)c1ccc(CN(Cc2cc(Cl)ccc2Cl)C(=O)c2cc(F)cc(F)c2)cn1 [Compound 187] , which is > 7.00
